Provenance of the data: PubChem BioAssay AID1159580

- assay-details: chemical genetic growth profiling, strain panel (AID 1159580);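 note: tested at 20 µM; growth read once vehicle control cultures reached saturation at 30 °C; 1 = growth at the plate median or of vehicle wells; lower values mean less growth of the strain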
- condition-parameters: S. cerevisiae deletion strains, growth OD, locus YHR079C, strain IRE1, stronger effect = lower value
Among all 5,500 compounds or so, about 2,000 (36%) were called active. About 18% were inconclusive and are not listed. The list shows a part of the results.
readout: normalized growth
Could you respond with only the numeric value?

Some solved entries appear below for comparison.
compound	readout	endpoint-value
CC(=O)OCC(=O)[C@@]1(O)CCC2C3CCC4=CC(=O)CC[C@]4(C)[C@@]3(F)[C@@H](O)C[C@@]21C (stereo partly specified)	normalized growth	0.995
COc1ccc(/C(C#N)=C2C=C/C(=N/O)C(Cl)=C\2)cc1	normalized growth	0.996
C[C@]12C=CC(=O)C=C1CCC1C2CC[C@]2(C)C(=O)CCC12 (stereo partly specified)	normalized growth	0.978
Cn1nnnc1SCC1=C(C(=O)O)N2C(=O)C(NC(=O)C(OC=O)c3ccccc3)C2SC1 (stereo unspecified)	normalized growth	0.985
Cn1c([N+](=O)[O-])cnc1COC(N)=O	normalized growth	1

Please turn your attention to the following entry.
Exam item: Give me measured normalized growth, please, for this compound: OC[C@@H](O)[C@H](O)[C@@H](O)[C@H](O)CO
Marked response: 0.995
